target: FGFR1 kinase (Homo sapiens, UniProt P11362); test: Kinase assay (using Caliper technology); format: biochemical; conditions: FGFR1 kinase, Caliper; upper bound of bin; read-out: IC50
Sequence (P11362 22-822): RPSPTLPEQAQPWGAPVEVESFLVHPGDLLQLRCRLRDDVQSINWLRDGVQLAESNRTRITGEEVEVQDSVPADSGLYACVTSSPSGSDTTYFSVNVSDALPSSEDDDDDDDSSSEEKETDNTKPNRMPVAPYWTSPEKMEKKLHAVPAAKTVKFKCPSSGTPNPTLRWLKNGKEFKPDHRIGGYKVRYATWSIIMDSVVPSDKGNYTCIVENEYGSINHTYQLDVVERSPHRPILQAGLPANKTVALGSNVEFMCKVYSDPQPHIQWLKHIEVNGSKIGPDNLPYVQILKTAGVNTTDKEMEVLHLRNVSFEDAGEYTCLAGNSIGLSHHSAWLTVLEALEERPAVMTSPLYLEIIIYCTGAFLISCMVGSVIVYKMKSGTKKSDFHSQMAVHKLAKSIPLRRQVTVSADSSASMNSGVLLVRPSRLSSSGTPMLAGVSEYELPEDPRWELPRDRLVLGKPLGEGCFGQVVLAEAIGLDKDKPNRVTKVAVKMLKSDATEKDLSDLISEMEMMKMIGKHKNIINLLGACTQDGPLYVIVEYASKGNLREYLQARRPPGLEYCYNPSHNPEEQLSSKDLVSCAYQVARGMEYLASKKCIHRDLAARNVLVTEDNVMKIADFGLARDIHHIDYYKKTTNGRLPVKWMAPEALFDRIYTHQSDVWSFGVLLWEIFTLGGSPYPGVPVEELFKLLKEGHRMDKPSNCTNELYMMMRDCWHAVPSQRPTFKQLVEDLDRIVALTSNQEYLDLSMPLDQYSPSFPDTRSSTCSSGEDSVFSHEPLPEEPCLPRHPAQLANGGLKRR
// reported IC50 per item

The molecule identified as "CNC(=O)c1cccc(COc2cc(Nc3ccnc(NCc4cc(C)no4)n3)n[nH]2)c1" registered its IC50 at < 200 nM

The molecule identified as "c1coc(-c2cc(Nc3ccnc(NCc4cc(C5CC5)no4)n3)n[nH]2)c1" registered its IC50 at < 200 nM

The molecule identified as "c1cc(Nc2cc(C3CCCC3)[nH]n2)nc(NCc2cc(C3CC3)no2)n1" registered its IC50 at < 200 nM

All figures here come from patent US20080004302A1.
